Below, each entry is listed with its recorded composite z-score.
System: Inhibin beta A chain (activin A)
Test: INHBA (activin A) binders on microarrays, primary screen, biochemical, small-molecule microarray, 635 nm fluorescence scan (AID 1107);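 also: mouse activin A protein probed at 4.33 µg/mL on printed slides; score merges bound-protein fluorescence near 667 nm with spot signal-to-noise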
Settings: small-molecule microarray binding, higher = more signal
REPORTED ENDPOINT: composite z-score

molecule=CC(C)C[C@@H]1NC(=O)[C@H]2C[C@@H](C(=O)NCCCCCCN(C)C)[C@@H](c3cccc(OCCO)c3)N2C1=O target="Inhibin beta A chain (activin A)" reported_endpoint="composite z-score" test_value=1.1
molecule=CCOC(=O)CCN1C(=O)[C@H]2[C@H]3[C@H](O)[C@H](O)CC(=NOCc4ccccc4)[C@@H]3CC[C@H]2C1=O target="Inhibin beta A chain (activin A)" reported_endpoint="composite z-score" test_value=0.0727
molecule=COC(=O)c1c(CC[C@@H](CO)NC(=O)N[C@H](Cc2ccccc2)Cn2cc(-c3ccccc3N)nn2)oc(C(C)=O)c1C(=O)OC target="Inhibin beta A chain (activin A)" reported_endpoint="composite z-score" test_value=0.95
molecule=CCc1cc2c(nc1CC)CCN(CCC(C)=NOC[C@@H](O)[C@H]1O[C@@H]3OC(C)(C)O[C@@H]3[C@H]1O)C2 target="Inhibin beta A chain (activin A)" reported_endpoint="composite z-score" test_value=0.963
molecule=COC(=O)[C@@H]1N=C(c2ccc(OCCCO)cc2)O[C@@H]1c1ccccc1N=[N+]=[N-] target="Inhibin beta A chain (activin A)" reported_endpoint="composite z-score" test_value=1.08
molecule=C#CCCCON=C1C[C@@H](O)[C@@H](O)[C@@H]2[C@@H]3C(=O)N(CCC(=O)OCC)C(=O)[C@@H]3CC[C@@H]12 target="Inhibin beta A chain (activin A)" reported_endpoint="composite z-score" test_value=0.459
molecule=C=CCOC(=O)[C@H]1[C@@H]2C(=O)O[C@@H](c3ccccc3)[C@@H](c3ccccc3)N2[C@@H](c2ccc(OCCOC(=O)[C@H]3C[C@H]4C(=O)N[C@@H](Cc5ccccc5)C(=O)N4[C@H]3c3ccc(O)cc3)cc2)[C@]12C(=O)Nc1ccccc12 target="Inhibin beta A chain (activin A)" reported_endpoint="composite z-score" test_value=-1.01
molecule="N#Cc1ccc(NN2C(C(O)c3cccc4ccccc34)C=CC3C(=O)N(c4ccccc4)C(=O)C32)cc1 (stereo unspecified)" target="Inhibin beta A chain (activin A)" reported_endpoint="composite z-score" test_value=0.478
molecule=COC(=O)C1=C(C)[C@@H](O)[C@@H](C)[C@H](c2c(OC)c(OC)c(C)c(OC)c2OC)O1 target="Inhibin beta A chain (activin A)" reported_endpoint="composite z-score" test_value=0.394
molecule="CC(CCN1CCc2nc(-c3ccccc3)c(-c3ccccc3)cc2C1)=NOC(C)CN1CCCCc2nc(C)c(C)cc21 (stereo unspecified)" target="Inhibin beta A chain (activin A)" reported_endpoint="composite z-score" test_value=1.15
molecule=Cc1cc2c(c(=O)o1)[C@H](O)[C@H]1O[C@H]1C2=O target="Inhibin beta A chain (activin A)" reported_endpoint="composite z-score" test_value=0.623

====

Assay: small-molecule microarray binders of probe aDKK1, primary screen, biochemical, biotinylated probe, 635/667 nm fluorescence (AID 1099);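 also: score merges 667nm spot fluorescence with signal to noise across triplicate slides; reference of the scale not given here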
Conditions: higher = more signal
Below, each entry is listed with its recorded composite z-score.
REPORTED ENDPOINT: composite z-score

compound="CCCCCN1CC=CC23O[C@@H]4C=CCOC(=O)[C@@H]4[C@H]2C(=O)N(C(CO)C(C)C)[C@@H]3C1=O (stereo partly drawn)" test_value=-0.183
compound="COCCNC(=O)OCC1CCCC2(CC(OC(=O)NCCc3ccc(F)cc3)CC(CCC(=O)N[C@@H](C)C(=O)OC)O2)O1 (stereo partly drawn)" test_value=-0.115
compound=COc1ccc(O[C@H]2C=C[C@@H](c3ccccc3)O[C@@H]2COC(=O)N2CCCCC2)cc1 test_value=-0.173
compound="Cc1cc2c(nc1C)CCCN2CC(O)CN1CCN(C)CC1 (stereo not drawn)" test_value=0.859
compound=O=C1O[C@@H](c2ccccc2)[C@@H](c2ccccc2)N2[C@@H](c3ccc(OCCO)cc3)[C@]3(C(=O)Nc4ccccc43)[C@@H](C(=O)N3CCN(c4ncccn4)CC3)[C@H]12 test_value=0.556
compound=C/C=C\[C@@H](NCc1ccccc1Br)[C@@H](O)Cc1ccccc1 test_value=0.41
compound=COc1ccc(CCNC(=O)[C@@H]2c3ccccc3C(=O)N(c3ccc(C)cn3)[C@H]2c2ccc(CO)cc2)cc1 test_value=0.263
compound="CCOC(=O)[C@H](Cc1ccccc1)NC(=O)CCC1CC(OC(=O)NCc2ccc3c(c2)OCO3)CC2(CCCC(COC(=O)NCc3ccccc3)O2)O1 (stereo partly drawn)" test_value=-0.125

====

Molecular target: E3 ubiquitin-protein ligase XIAP (Homo sapiens) (UniProt P98170)
Sequence (P98170 whole entry, looked up): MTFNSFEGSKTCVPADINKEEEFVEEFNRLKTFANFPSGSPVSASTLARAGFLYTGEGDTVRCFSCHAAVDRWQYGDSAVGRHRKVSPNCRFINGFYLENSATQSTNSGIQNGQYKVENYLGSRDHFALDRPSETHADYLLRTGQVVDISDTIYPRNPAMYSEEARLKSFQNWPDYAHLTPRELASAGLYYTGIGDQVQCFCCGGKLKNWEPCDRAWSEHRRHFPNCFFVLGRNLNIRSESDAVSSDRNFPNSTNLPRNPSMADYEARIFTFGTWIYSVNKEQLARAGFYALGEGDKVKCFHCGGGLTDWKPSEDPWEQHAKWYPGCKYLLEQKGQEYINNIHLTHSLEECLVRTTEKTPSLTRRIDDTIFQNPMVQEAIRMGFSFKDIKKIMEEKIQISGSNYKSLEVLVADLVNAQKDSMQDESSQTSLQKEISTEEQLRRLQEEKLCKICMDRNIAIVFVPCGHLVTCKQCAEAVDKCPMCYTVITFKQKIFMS
Test: XIAP binders, primary screen, biophysical, small-molecule microarray, fluorescence 635 nm (AID 1181);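 also: score merges 667 nm emission and signal to noise over triplicate slides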
Details: small-molecule microarray binding, higher = more signal
REPORTED ENDPOINT: composite z-score

structure_as_smiles=COc1ccc(-c2nc3c(c4c2C[C@H](C)OC4)CN(CCC(C)C)CC3)cc1 reported_endpoint="composite z-score" test_value=-0.0559
structure_as_smiles=CN(C)C(=O)[C@@]1(Cc2ccccc2)N=C(c2ccc(OCCCO)cc2)O[C@H]1c1ccccc1CN=[N+]=[N-] reported_endpoint="composite z-score" test_value=0.215
structure_as_smiles=CC(CCC(=O)OC[C@H]1O[C@H](C#Cc2ccccc2)C=C[C@@H]1Oc1ccc(C)cc1)=NOC[C@@H](O)COCc1ccco1 reported_endpoint="composite z-score" test_value=-0.0454
structure_as_smiles=O=C1[C@H]2[C@H]3[C@H](O)[C@H](O)CC(=NOCc4ccccc4)[C@@H]3CC[C@H]2C(=O)N1C1CCCCC1 reported_endpoint="composite z-score" test_value=-0.144

====

Target: Torsin-1A (Homo sapiens)
Assay: small-molecule binders of mutant TOR1A in lysate, primary screen, cell lysate, small-molecule microarray, COS7 lysate, 635/667 nm fluorescence (AID 1150);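 also: score pools 667 nm emission and signal to noise measuring lysate protein binding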
Details: COS7 hTOR1A mutant lysate, 635 nm fluorescence, higher = more signal
REPORTED ENDPOINT: composite z-score

compound=COCCOC(=O)N1C(=O)[C@@]2(c3ccccc31)[C@H](C(N)=O)[C@H]1C(=O)O[C@H](c3ccccc3)[C@H](c3ccccc3)N1[C@@H]2c1ccccc1OCCO target="Torsin-1A (Homo sapiens)" test_value=0.815
compound=COC(=O)[C@H]1COC(c2ccc(OCCCO)cc2)=N1 target="Torsin-1A (Homo sapiens)" test_value=1.4
compound=CC(CCN1CCc2nc(-c3ccccc3)c(-c3ccccc3)cc2C1)=NO[C@@H](C)c1cn([C@H](CO)Cc2ccccc2)nn1 target="Torsin-1A (Homo sapiens)" test_value=0.482
compound=CC(CCC(=O)OC[C@H]1O[C@H](C#Cc2ccccc2)C=C[C@@H]1Oc1ccc(C)cc1)=NOC[C@@H](O)[C@H]1O[C@@H]2OC(C)(C)O[C@@H]2[C@H]1O target="Torsin-1A (Homo sapiens)" test_value=-0.617
compound=CC(C)NC(=O)[C@@H]1c2ccccc2C(=O)N(CC23CC4CC(CC(C4)C2)C3)[C@H]1c1ccc(CO)cc1 target="Torsin-1A (Homo sapiens)" test_value=0.561
compound=O=C1c2ccccc2[C@@]2(Cc3ccccc3N(C3CC3)C2=O)[C@H](c2ccc(CO)cc2)N1Cc1ccccc1C(F)(F)F target="Torsin-1A (Homo sapiens)" test_value=-0.77
compound=O=C1C[C@@H](O)[C@@H](O)[C@@H]2[C@@H]3C(=O)N(c4ccc(F)cc4F)C(=O)[C@@H]3CC[C@@H]12 target="Torsin-1A (Homo sapiens)" test_value=0.149
compound=COC(=O)CC=C[C@@H](C)[C@@H](C=NO[C@@H](C)c1cc(-c2c(C)cc(C)cc2C)no1)OC target="Torsin-1A (Homo sapiens)" test_value=-2.18
compound=CC(C)CON=C1[C@H]2CCn3c(=O)n(-c4ccccc4)c(=O)n3[C@H]2[C@H](O)[C@@H]2O[C@H]12 target="Torsin-1A (Homo sapiens)" test_value=0.189
compound=C[C@@H]1C=CCC(=O)OC[C@H](C)C(=O)N[C@@H](C)C(=O)OC1 target="Torsin-1A (Homo sapiens)" test_value=0.527
compound=O=C1[C@H]2[C@H]3[C@H](O)[C@H](O)CC(=NOCc4ccccc4)[C@H]3CC[C@H]2C(=O)N1c1ccc(F)cc1F target="Torsin-1A (Homo sapiens)" test_value=-0.013
compound=CO[C@H]1COC(=O)[C@H](C)NC(=O)[C@@H](C)COC(=O)CC=C[C@@H]1C target="Torsin-1A (Homo sapiens)" test_value=0.296
compound="CN1C(=O)C2C=CC(C(O)c3ccc(I)cc3)N(NC(=O)OC(C)(C)C)C2C1=O (stereo not drawn)" target="Torsin-1A (Homo sapiens)" test_value=0.447

====

Reported composite z-score values follow for various molecules
Experiment: binders of probe aFSTL3 on microarray, primary screen, stem cell growth factor project, biochemical, small-molecule microarray, fluorescence 635/667 (AID 1064);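 also: measures binding of the biotinylated anti-FSTL3 antibody to printed compounds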
Settings: higher = more signal
REPORTED ENDPOINT: composite z-score

molecule=CC(C)NC(=O)[C@@]1(C)c2ccccc2C(=O)N(Cc2cc(F)cc(C(F)(F)F)c2)[C@H]1c1ccc(CO)cc1 test_value=0.0059
molecule=COCCOC(=O)N1C(=O)[C@@]2(c3cc(C#CC4(O)CCCCCC4)ccc31)[C@H](c1ccc(OCCO)cc1)N1[C@H](c3ccccc3)[C@H](c3ccccc3)OC(=O)[C@H]1[C@@H]2C(=O)NC[C@H](O)c1ccccc1 test_value=-0.0536
molecule=O=C1[C@H]2[C@H]3[C@H](O)[C@H](O)CC(=NO[C@@H]4O[C@H](CO)[C@@H](O)[C@H](O)[C@H]4O)[C@@H]3CC[C@H]2C(=O)N1Cc1ccc2c(c1)OCO2 test_value=-0.401
molecule="CC(CCN1CCCCc2nc(C)c(C)cc21)=NOC(C)CN1CCCc2nc(C)c(C)cc21 (configuration not stated)" test_value=0.0516
molecule=CN(C)C(=O)[C@@]1(Cc2ccccc2)N=C(c2ccc(OCCCO)cc2)O[C@H]1c1ccccc1CN=[N+]=[N-] test_value=1.35
molecule=COc1ccc(CCNC(=O)[C@@H]2c3ccccc3C(=O)N(c3ccc(C)cn3)[C@H]2c2ccc(CO)cc2)cc1 test_value=1.18
molecule=O=C1C2=CC[C@H]3C(=O)N(Cc4ccc5c(c4)OCO5)C(=O)[C@H]3[C@H]2[C@H](O)[C@@H]2O[C@H]12 test_value=-0.319
